Values from patent US5631401A

experimental.system: Rat brain protein farnesyltransferase (Rattus norvegicus, UniProt Q02293+Q04631)
Construct: The enzyme was purified according to Reiss, Y., et al., Cell, 62: 81-88 (1990), utilizing steps one through three; from tissue; host or cells: rat brain
test.details: In vitro inhibition of protein farnesyltransferase (biotin-lamin substrate, scintillation proximity assay)
Type: biochemical
test.parameters: 10 μM; compared to uninhibited control
Experimental: In vitro inhibition of protein farnesyltransferase may be measured by the following procedure. […] Rat brain protein farnesyltransferase activity was measured using the biotin-lamin substrate (which is known to undergo farnesylation in a manner analogous to Ras protein) and radioactive farnesyl diphosphate provided by Amersham Life Science in their commercial scintillation proximity assay kit for the determination of farnesyltransferase. […]
property.measured: inhibition at 10 µM (%)

compound	inhibition at 10 µM [%]
CCCN(CCCCOc1ccccc1)C(=O)[C@H]1[C@H](C(=O)O)[C@H](C(=O)N(CCC)CCCCOc2ccccc2)[C@H]1C(=O)O [Example 39]	66

(1) C=CCN(Cc1ccc(Oc2ccccc2)cc1)C(=O)[C@H]1[C@H](C(=O)O)[C@H](C(=O)N(CC=C)Cc2ccc(Oc3ccccc3)cc2)[C@H]1C(=O)O [Example 30]
(2) C[C@@H](c1ccccc1)N(Cc1ccc(Oc2ccccc2)cc1)C(=O)[C@H]1[C@H](C(=O)O)[C@H](C(=O)N(Cc2ccc(Oc3ccccc3)cc2)[C@@H](C)c2ccccc2)[C@H]1C(=O)O [Example 87]
[in] Task for the reader: decide whether 1 or 2 has the larger inhibition at 10 µM. API: response body contains the label of the selected item.
[out] 2
